Target: human Cot/Tpl2 kinase (Homo sapiens)
Construct: human Cot/Tpl2 kinase construct encoding residues 30-398; 6His (N); made in house; host or cells: Sf9 insect cells, baculovirus system (BD Biosciences)
Sequence (P41279 30-398): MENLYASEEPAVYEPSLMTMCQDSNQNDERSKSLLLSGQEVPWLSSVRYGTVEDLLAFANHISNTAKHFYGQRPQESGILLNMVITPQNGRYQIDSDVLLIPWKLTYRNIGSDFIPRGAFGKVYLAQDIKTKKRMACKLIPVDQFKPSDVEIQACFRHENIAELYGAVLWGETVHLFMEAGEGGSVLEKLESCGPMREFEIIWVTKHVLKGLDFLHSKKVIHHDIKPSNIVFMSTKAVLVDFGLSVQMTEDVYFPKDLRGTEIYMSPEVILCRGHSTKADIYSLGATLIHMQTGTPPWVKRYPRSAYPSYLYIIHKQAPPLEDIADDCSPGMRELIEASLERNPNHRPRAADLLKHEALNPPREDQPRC
Assay: Tpl2/Cot kinase assay: GST-MEK1 phosphorylation detected by ELISA (DELFIA Eu)
Format: biochemical
Details: Tpl2/Cot kinase, GST-MEK1 substrate, 50 uM ATP
pIC50: −log10 of the molar value.
Rule: pIC50 under 7 gives N, otherwise Y.

molecule="N#Cc1cnc2c(Br)cc(NCc3cn(-c4cc[n+]([O-])cc4)nn3)cc2c1Nc1ccc(F)c(Cl)c1 [Example 748]" assigned_label=Y
molecule="CS(=O)(=O)NCCCn1cc(CNc2cc(Cl)c3ncc(C#N)c(Nc4ccc(F)c(Cl)c4)c3c2)nn1 [Example 905]" assigned_label=Y
molecule="CN(C)C(=O)OCCCn1cc(CNc2cc(Br)c3ncc(C#N)c(Nc4ccc(F)c(Cl)c4)c3c2)nn1 [Example 752]" assigned_label=Y
molecule="N#Cc1cnc2c(Cl)cc(NCC(=O)NCCN3CCOCC3)cc2c1Nc1ccc(F)c(Cl)c1 [Example 777]" assigned_label=N
